// values below are reported melting point
Counter-ions that a name gives are not always drawn.
PROPERTY MEASURED: melting point

INSERT INTO results (compound, property_measured, result) VALUES
  ('CC[C@H]1CN(c2c(F)cc3c(=O)c(C(=O)O)cn([C@@H]4C[C@@H]4F)c3c2OC)C[C@H]1NC', 'melting point', '143 to 145 °C'),
  ('CCC[C@H]1CN(c2c(F)cc3c(=O)c(C(=O)O)cn4c3c2OC[C@@H]4C)C[C@H]1N (as salt: hydrochloride)', 'melting point', '225 to 231 °C'),
  ('CCC[C@H]1CN(c2c(F)cc3c(=O)c(C(=O)O)cn([C@@H]4C[C@@H]4F)c3c2OC)C[C@H]1N', 'melting point', '79 to 83 °C'),
  ('CC[C@H]1CN(c2c(F)cc3c(=O)c(C(=O)O)cn4c3c2OC[C@@H]4C)C[C@H]1NC', 'melting point', '211 to 213 °C');

----------
Tested on: P. Vulgalis 08601
PROCEDURE SUMMARY: Antibacterial activity (MIC), standard method of the Japan Society of Chemotherapy
Type: cell-based
TEST SETTINGS: P. Vulgalis 08601; read-out: MIC
PROPERTY MEASURED: MIC (µg/mL)

INSERT INTO measurements (compound, assay_system, recorded_number) VALUES
  ('COc1c(N2C[C@@H](N)[C@@H](C3CC3)C2)c(F)cc2c(=O)c(C(=O)O)cn([C@@H]3C[C@@H]3F)c12 [Compound No. 8]', 'P. Vulgalis 08601', 0.025),
  ('CC[C@H]1CN(c2c(F)cc3c(=O)c(C(=O)O)cn([C@@H]4C[C@@H]4F)c3c2C)C[C@H]1N [Compound No. 2]', 'P. Vulgalis 08601', 0.006),
  ('CC[C@H]1CN(c2c(F)cc3c(=O)c(C(=O)O)cn4c3c2OC[C@@H]4C)C[C@H]1N [Compound No. 3]', 'P. Vulgalis 08601', 0.006),
  ('Cc1c(N2C[C@@H](N)[C@@H](C(C)C)C2)c(F)cc2c(=O)c(C(=O)O)cn([C@@H]3C[C@@H]3F)c12 [Compound No. 16]', 'P. Vulgalis 08601', 0.025),
  ('CC[C@H]1CN(c2c(F)cc3c(=O)c(C(=O)O)cn([C@@H]4C[C@@H]4F)c3c2OC)C[C@H]1N [Compound No. 1]', 'P. Vulgalis 08601', 0.012);

----------
// values below are reported Percentile induction of structural aberration (TA %)
Test system: Chinese hamster lung (CHL/IU) cells
PROCEDURE SUMMARY: Effect of inducing chromosomal aberration
Assay type: cell-based
TEST SETTINGS: 30 μg/mL, 24 hours, CHL/IU cells
PROPERTY MEASURED: Percentile induction of structural aberration (TA %)

INSERT INTO results (compound, recorded_number) VALUES
  ('CC[C@H]1CN(c2c(F)cc3c(=O)c(C(=O)O)cn4c3c2OC[C@@H]4C)C[C@H]1N', 1),
  ('CC[C@H]1CN(c2c(F)c(N)c3c(=O)c(C(=O)O)cn(C4CC4)c3c2C)C[C@H]1N [Comparative Compound E, reference compound]', 6),
  ('CC[C@H]1CN(c2c(F)cc3c(=O)c(C(=O)O)cn([C@@H]4C[C@@H]4F)c3c2C)C[C@H]1N', 2),
  ('CC[C@H]1CN(c2c(F)cc3c(=O)c(C(=O)O)cn([C@@H]4C[C@@H]4F)c3c2OC)C[C@H]1N', 3);

Source listed as patent US7977327B2.
